# MEASURED TARGET: adenosine deaminase of type VII (mucous membrane of intestinal tract of calf) (Bos taurus)
# Construct: from tissue; host or cells: mucous membrane of intestinal tract of calf
# Sequence (P56658 1-363): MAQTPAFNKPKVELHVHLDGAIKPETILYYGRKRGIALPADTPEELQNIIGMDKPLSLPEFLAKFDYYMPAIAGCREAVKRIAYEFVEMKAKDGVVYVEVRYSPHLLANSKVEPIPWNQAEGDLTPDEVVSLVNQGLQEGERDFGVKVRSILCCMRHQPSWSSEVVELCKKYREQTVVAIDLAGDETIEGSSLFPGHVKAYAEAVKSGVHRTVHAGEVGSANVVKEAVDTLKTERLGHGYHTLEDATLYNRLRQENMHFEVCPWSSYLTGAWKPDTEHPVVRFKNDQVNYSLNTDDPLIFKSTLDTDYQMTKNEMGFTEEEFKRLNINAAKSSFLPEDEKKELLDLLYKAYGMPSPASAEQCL
# TEST METHOD NOTES: Adenosine deaminase inhibiting action
# Format: biochemical
# TEST SETTINGS: 25° C., 0.05M phosphate buffer pH 7.5, adenosine substrate, 5 minutes, Lineweaver-Burk plots
# Experimental: 1. Adenosine Deaminase Inhibiting Action The enzymatic reaction was conducted at 25° C. in a 0.05M phosphate buffer (pH=7.5). […] Then the amount of inosine produced was determined by means of an HPLC to measure the inhibiting activity. The test was conducted for various substrate concentrations and Ki values were measured by Lineweaver-Burk plots.
pKi: −log10 of the molar value.
Please note: condition met applies when pKi is 5 or greater, and condition not met applies otherwise.

CNc1ncnc2c1ncn2[C@@H]1O[C@H](COC)[C@@H](O)[C@H]1O
condition not met
CO[C@@H]1[C@H](OC)[C@@H](CO)O[C@H]1n1cnc2c(N)nc(C)nc21
condition met
CO[C@H]1[C@@H](O)[C@H](n2cnc3c(N)ncnc32)O[C@@H]1CO
condition not met
CO[C@H]1[C@@H](O)[C@H](n2cnc3c(N)nc(N)nc32)O[C@@H]1CO
condition met
CO[C@@H]1[C@H](O)[C@@H](CO)O[C@H]1n1cnc2c(N)nc(O)nc21 [Compound 39, 2-Hydroxy-2'-O-methyladenosine]
condition not met

# input for lookup
-- ask Does "CNc1ncnc2c1ncn2[C@@H]1O[C@H](CO)[C@@H](OC)[C@H]1OC" have a reported pKi of at least 5?
-- reply condition met

###

# MEASURED TARGET: UniProt:P56658
// classify: if (Ki < 200 nM) 1 (yes) else 0 (no)

Take a look at these entries with their results.
CCCCCCCCCCC#Cc1nc(NC)c2ncn([C@@H]3O[C@H](CO)[C@@H](O)[C@H]3OC)c2n1 [Compound 33]
0 (no)
CNc1nc(C)nc2c1ncn2[C@@H]1O[C@H](CO)[C@@H](O)[C@H]1OC [Compound 27, 2, N^6,2'-O-Trimethyladenosine]
0 (no)
CO[C@@H]1[C@H](O)[C@@H](CO)O[C@H]1n1cnc2c(N)nc(I)nc21 [Compound 47, 2-Iodo-2'-O-methyladenosine]
0 (no)
CCCCO[C@@H]1[C@H](O)[C@@H](CO)O[C@H]1n1cnc2c(N)ncnc21 [Compound 4, 2'-O-n-Butyladenosine]
0 (no)
CCO[C@@H]1[C@H](OCC)[C@@H](CO)O[C@H]1n1cnc2c(NC)ncnc21 [Compound 61, N^6 -Methyl-2',3'-O-diethyladenosine]
1 (yes)

-- ask Bench note: check whether CNc1ncnc2c1ncn2[C@@H]1O[C@H](CO)[C@@H](O)[C@H]1OC [Compound 18, N^6,2'-O-Dimethiladenosine] shows Ki below 200 nM
-- reply 0 (no)

###

# MEASURED TARGET: adenosine deaminase of type VII (mucous membrane of intestinal tract of calf) (Bos taurus, UniProt P56658)
# Sequence (P56658 1-363): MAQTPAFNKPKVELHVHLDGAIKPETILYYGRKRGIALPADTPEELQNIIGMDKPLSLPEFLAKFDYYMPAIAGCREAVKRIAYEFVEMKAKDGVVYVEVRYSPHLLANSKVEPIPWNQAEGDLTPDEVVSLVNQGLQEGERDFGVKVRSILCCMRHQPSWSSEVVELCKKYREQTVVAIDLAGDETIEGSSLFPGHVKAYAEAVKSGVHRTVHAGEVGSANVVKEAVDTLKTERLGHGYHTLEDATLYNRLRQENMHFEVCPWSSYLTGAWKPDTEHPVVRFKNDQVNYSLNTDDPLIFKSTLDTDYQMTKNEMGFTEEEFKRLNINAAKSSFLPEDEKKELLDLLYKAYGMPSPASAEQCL
Classes based on Ki: one (below 0.6 µM), two (0.6 µM to below 8 µM), three (8 µM or more)

Recorded results for 3 compounds are shown here.
CO[C@H]1[C@@H](O)[C@H](n2cnc3c(N)nc(I)nc32)O[C@@H]1CO
two
CCCCCCCCO[C@@H]1[C@H](O)[C@@H](CO)O[C@H]1n1cnc2c(NC)ncnc21
one
CCCCCCCCCCc1nc(NC)c2ncn([C@@H]3O[C@H](CO)[C@@H](O)[C@H]3OC)c2n1
one

-- ask Bin this entry: "CO[C@@H]1[C@H](O)[C@@H](CO)O[C@H]1n1cnc2c(N)nc(Br)nc21"
-- reply two

-- ask Input "CO[C@@H]1[C@H](O)[C@@H](CO)O[C@H]1n1cnc2c(N)nc(C#CCO)nc21" ; output its category
-- reply three

-- ask Could you place "CNc1nc(Br)nc2c1ncn2[C@@H]1O[C@H](CO)[C@@H](OC)[C@H]1O" in its proper category? Many thanks.
-- reply two

-- ask Which Ki category applies to "CNc1nc(C)nc2c1ncn2[C@@H]1O[C@H](CO)[C@@H](OC)[C@H]1OC" here?
-- reply two

-- ask In plain terms, what class is "CO[C@@H]1[C@H](O)[C@@H](CO)O[C@H]1n1cnc2c(N)nc(C)nc21" ?
-- reply three

-- ask Classify this compound: "CCCCCCO[C@@H]1[C@H](O)[C@@H](CO)O[C@H]1n1cnc2c(NC)ncnc21"
-- reply two

-- ask Band assignment needed for "CCCCO[C@@H]1[C@H](O)[C@@H](CO)O[C@H]1n1cnc2c(NC)ncnc21" please.
-- reply one

-- ask Which category does the recorded Ki put "CO[C@H]1[C@@H](O)[C@H](n2cnc3c(N)nc(C)nc32)O[C@@H]1CO" in?
-- reply three

-- ask Determine which band this compound sits in: "CO[C@H]1[C@@H](O)[C@H](n2cnc3c(N)nc(Nc4ccccc4)nc32)O[C@@H]1CO"
-- reply two

-- ask Which band does "CCO[C@@H]1[C@H](O)[C@@H](CO)O[C@H]1n1cnc2c(NC)ncnc21" fall in?
-- reply one

-- ask Category of "CCCCNc1ncnc2c1ncn2[C@@H]1O[C@H](CO)[C@@H](O)[C@H]1OC" , please.
-- reply three

-- ask Into which category would you place "CCCCCCc1nc(NC)c2ncn([C@@H]3O[C@H](CO)[C@@H](O)[C@H]3OC)c2n1" ?
-- reply one

-- ask State the band of "CO[C@@H]1[C@H](O)[C@@H](CO)O[C@H]1n1cnc2c(N)nc(N)nc21"
-- reply three

###

Sequence of the target: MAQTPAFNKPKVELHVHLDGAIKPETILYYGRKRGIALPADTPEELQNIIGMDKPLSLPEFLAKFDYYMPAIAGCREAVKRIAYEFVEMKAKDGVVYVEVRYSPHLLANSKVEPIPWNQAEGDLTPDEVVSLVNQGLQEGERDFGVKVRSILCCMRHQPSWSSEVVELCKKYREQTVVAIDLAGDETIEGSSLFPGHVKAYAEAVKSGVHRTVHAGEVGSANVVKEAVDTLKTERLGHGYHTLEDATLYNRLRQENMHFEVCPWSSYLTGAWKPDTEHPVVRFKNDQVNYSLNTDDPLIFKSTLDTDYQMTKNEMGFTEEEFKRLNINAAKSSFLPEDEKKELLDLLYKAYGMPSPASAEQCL
Returns: string. Value is Condition met if measured Ki is below 10 µM, and Condition not met if it is greater than or equal to it.

Reference set (3 entries):
CNc1nc(Nc2ccccc2)nc2c1ncn2[C@@H]1O[C@H](CO)[C@@H](O)[C@H]1OC [Compound 55, 2-Phenylamino-N^6,2'-O-dimethyladenosine]
Condition met
CO[C@H]1[C@@H](O)[C@H](n2cnc3c(N)nc(Br)nc32)O[C@@H]1CO [Compound 44, 2-Bromo-3'-O-methyladeonsine]
Condition not met
CNc1nc(Br)nc2c1ncn2[C@@H]1O[C@H](CO)[C@@H](O)[C@H]1OC [Compound 45, 2-Bromo-N^6,2'-O-dimethyladenosine]
Condition met

-- ask Say whether its Ki is strictly beneath 10 µM. Entry: CNc1nc(Nc2ccccc2)nc2c1ncn2[C@@H]1O[C@H](CO)[C@@H](OC)[C@H]1O [Compound 56, 2-Phenylamino-N^6,3'-O-dimethyladenosine]
-- reply Condition met

-- ask Below 10 µM on Ki? Entry CO[C@@H]1[C@H](O)[C@@H](CO)O[C@H]1n1cnc2c(N)ncnc21 [Compound 1, 2'-O-Methyladenosine]
-- reply Condition not met

-- ask Ki under 10 µM? Item: CCNc1ncnc2c1ncn2[C@@H]1O[C@H](CO)[C@@H](O)[C@H]1OC [Compound 19, N^6 -Ethyl-2'-O-methyladenosine]
-- reply Condition not met
